B1: glmS ribozyme (parent)
chain: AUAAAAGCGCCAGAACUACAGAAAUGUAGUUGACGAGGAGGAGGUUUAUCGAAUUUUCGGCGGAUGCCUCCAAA

variants of: B1; assay: self-cleavage kobs at 2500 uM GlcN6P; higher = faster cleavage; RNA array; details: with glucosamine-6-phosphate
Fewer inactive variants are shown than the library holds.
Endpoint label: self-cleavage kobs at 2500 uM GlcN6P (s⁻¹)
Numbers only, in s⁻¹.

// solved cases for self-cleavage kobs at 2500 uM GlcN6P follow
INSERT INTO assay_data (construct_sequence, display_unit, reported) VALUES
  ('AUAAAAGCGCUAGCACUACAGAAAUGUAGUUGACGAGGGGGAGGUUUAUCGAAUUUUCGGCGGAUGCCUCCAAA [C11U A14C A39G]', 's⁻¹', 0.000472),
  ('AUAAAAGCGCCAGAACUACAGAAAUGUAGUUGACGAGGAAGAGGUGGAUCGAAUUUUCGGCGGAUGCCUCCAAA [G40A U46G U47G]', 's⁻¹', 0.000358),
  ('AUAAAAGCGCCAGAACUACAGAAAUGUAGUUGACGAAGAGGAGGUGUAUCGAAUUUUCGGCGGAUGCCUCCAAA [G37A U46G]', 's⁻¹', 0.000159),
  ('AUAAAUGCGCCAGAACUACAGAAAUGUAGUUGACGAGGAGGAGGUUUAUUGAAUUUUCGGCGGAUGCGUCAAAA [A6U C50U C68G C71A]', 's⁻¹', '8.39e-05'),
  ('AUAAAAGCGCCAGAACUACAGAAAUGUAUUUGACGAGGAGGAGGUUUAUCGAAUUUUCGGCGGAUCCCUCCAAA [G29U G66C]', 's⁻¹', '9.16e-05');

For each of the items listed, what is its self-cleavage kobs at 2500 uM GlcN6P?
1. AUAAAAGCGCCCUAACUACAGAAAUGUAGUUGACGAGGAGGAGGUUUAUCGAAUUUUCGGCGGAUGCCUCCAAA [A12C G13U]
2. AUAAAAGCGCUGGAACUACAGAAAUGUAGUUGACGAGGAGGAGGUUUAUCGAAUUCUCGGCGGAUGCCUCCAAA [C11U A12G U56C]
3. AUAAAAGCGCCAGAACUACAGAAAUGUAGUUGACGAGGAGGAUGUUUAUCGAAUUUUCGGCGGAUGCAUUAAAA [G43U C68A C70U C71A]
4. AUAAAAGCGCCAGAACUACAGAAAUGUAGUUGACGAGGAGUUGGUUUAUCGGAUUAUCGGCGGAUGCCUCCAAA [G41U A42U A52G U56A]
5. AUAAAAGCGCCAGAACUACAGAAAUGUAGUGGACGAGGAGGAGGCUUAUCGAAUUUUCGGCGGAUGGCUCCAAA [U31G U45C C67G]
6. AUAAAAGCGCCAGAACUACAGAAAUGUAGUUGACGAGGAGUAGGUCUAUCGAAUUUUCGGCGGAUGCCUCCAAA [G41U U46C]
7. AUAAAAGCGCCAGAACUACAGAAAUGUAGUUGACGAGGAUGAGGUUUAUCGAAUUUUCGGCGGGUGCCUCCAAA [G40U A64G]
8. AUAAAAGCGCCAGGACUACAGAAAUGUAGUUGACGAGGAGGAGGUUUAUCGAACUUUCGGCGGAUGCCCCCAAA [A14G U54C U69C]

Ans.
1. 8.18e-05
2. 0.000115
3. 9.92e-05
4. 3.73e-05
5. 0.00223
6. 7.05e-05
7. 0.000145
8. 0.000161
